Hey, just so you know, these numbers are from the supplement of paper PMC9844399.

# Tested on: HeLa;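 also: High-content confocal imaging of branched-DNA amplified FISH in 384-well plates, Hoechst-defined nuclei, score is well value minus plate DMSO median over DMSO robust SD, four wells per compound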
# method_notes: MALAT1 nuclear FISH intensity, robust Z-score vs DMSO; higher = more nuclear MALAT1 lncRNA, active = -3 or less
# measurement_parameters: 10 µM; 6 h
Structures can show the parent of a compound that is named as a salt.
Binary classification by MALAT1 nuclear FISH intensity, with 0.4 as an inclusive lower bound for criterion met; all other cases are criterion not met.

molecule=CC[C@H](CO)Nc1nc(NCc2ccccc2)c2ncn(C(C)C)c2n1 assay_system=HeLa class_assignment="criterion not met"
molecule=O=C(NN=Cc1ccccc1O)c1ccc(O)c(O)c1 assay_system=HeLa class_assignment="criterion not met"
molecule="Cc1cc(C)cc(OCC2CNC(=O)O2)c1 (stereo not given)" assay_system=HeLa class_assignment="criterion not met"
molecule=COC(=O)c1ccc(O)cc1 assay_system=HeLa class_assignment="criterion not met"
molecule=N#CC(=C(/N)Sc1ccccc1N)/C(C#N)=C(/N)Sc1ccccc1N assay_system=HeLa class_assignment="criterion met"
molecule=COC(=O)C1=C(C)NC(C)=C(C(=O)OCCCN2CCC(c3ccccc3)(c3ccccc3)CC2)[C@H]1c1cccc([N+](=O)[O-])c1 assay_system=HeLa class_assignment="criterion met"
molecule=O=C(O)CCCC[C@@H]1SC[C@@H]2NC(=O)N[C@@H]21 assay_system=HeLa class_assignment="criterion not met"
molecule=Nc1ccn([C@@H]2O[C@H](CO)[C@@H](O)C2(F)F)c(=O)n1 assay_system=HeLa class_assignment="criterion met"
molecule="Nc1ccc(O)c(C(=O)O)c1 [Mesalamine]" assay_system=HeLa class_assignment="criterion not met"
molecule=Nc1nc2c(ncn2COC(CO)CO)c(=O)[nH]1 assay_system=HeLa class_assignment="criterion not met"
molecule=CC(=O)[C@@]1(O)CC[C@H]2[C@@H]3C[C@H](C)C4=CC(=O)C=C[C@]4(C)[C@@]3(F)[C@@H](O)C[C@@]21C assay_system=HeLa class_assignment="criterion met"
molecule=CN(Cc1ccc(C(C)(C)C)cc1)Cc1cccc2ccccc12 assay_system=HeLa class_assignment="criterion met"
molecule=Clc1ccc2nsnc2c1NC1=NCCN1 assay_system=HeLa class_assignment="criterion not met"
molecule=O=C1N=C(O)CN1N=Cc1ccc(-c2ccc([N+](=O)[O-])cc2)o1 assay_system=HeLa class_assignment="criterion not met"
molecule="Oc1cccc(-c2nc(N3CCOCC3)c3oc4ncccc4c3n2)c1 [PI 103 hydrochloride]" assay_system=HeLa class_assignment="criterion not met"
molecule="COCCOC(=O)C1=C(C)NC(C)=C(C(=O)OC(C)C)C1c1cccc([N+](=O)[O-])c1 (stereo not given)" assay_system=HeLa class_assignment="criterion not met"
molecule="OC(c1cc(C(F)(F)F)nc2c(C(F)(F)F)cccc12)C1CCCCN1 (stereo not given)" assay_system=HeLa class_assignment="criterion met"
molecule=Cn1cnc([N+](=O)[O-])c1Sc1ncnc2[nH]cnc12 assay_system=HeLa class_assignment="criterion met"
molecule=C[C@]12C=CC(=O)C=C1CC[C@@H]1[C@@H]2[C@@H](O)C[C@@]2(C)[C@H]1CC[C@]2(O)C(=O)CO assay_system=HeLa class_assignment="criterion not met"
molecule="Cc1onc(-c2ccccc2)c1C(=O)N[C@@H]1C(=O)N2[C@@H]1SC(C)(C)[C@@H]2C(=O)O [Oxacillin sodium salt monohydrate]" assay_system=HeLa class_assignment="criterion met"
molecule="C=C1C(=O)O[C@H]2[C@H]1CC/C(C)=C/CC[C@@]1(C)O[C@@H]21 [Parthenolide]" assay_system=HeLa class_assignment="criterion met"
molecule=CCCc1nc2c(C)cc(-c3nc4ccccc4n3C)cc2n1Cc1ccc(-c2ccccc2C(=O)O)cc1 assay_system=HeLa class_assignment="criterion not met"
molecule="CN(CCOc1ccc(NS(C)(=O)=O)cc1)CCc1ccc(NS(C)(=O)=O)cc1 [Dofetilide]" assay_system=HeLa class_assignment="criterion met"
molecule=CC(=O)OCOC(=O)CN(CC(=O)OCOC(C)=O)c1ccccc1OCCOc1ccccc1N(CC(=O)OCOC(C)=O)CC(=O)OCOC(C)=O assay_system=HeLa class_assignment="criterion not met"
molecule=CC(C)(C#N)c1cc(Cn2cncn2)cc(C(C)(C)C#N)c1 assay_system=HeLa class_assignment="criterion not met"
molecule=COc1ccc(C=CC(=O)c2c(-c3ccccc3)c3cc(C)ccc3[nH]c2=O)cc1 assay_system=HeLa class_assignment="criterion not met"
molecule="CC1(C)O[C@@H]2C[C@H]3[C@@H]4CCC5=CC(=O)CC[C@]5(C)[C@@]4(F)[C@@H](O)C[C@]3(C)[C@]2(C(=O)CCl)O1 [Halcinonide]" assay_system=HeLa class_assignment="criterion not met"
molecule="CN1CCCCC1CCN1c2ccccc2Sc2ccc([S+](C)[O-])cc21 (stereo not given) [Mesoridazine benzenesulfonate]" assay_system=HeLa class_assignment="criterion not met"
molecule=COc1ccc2[nH]c([S@@+]([O-])Cc3ncc(C)c(OC)c3C)nc2c1 assay_system=HeLa class_assignment="criterion not met"
molecule=C#C[C@]1(O)CC[C@H]2[C@@H]3CCc4cc(OC)ccc4[C@H]3CC[C@@]21C assay_system=HeLa class_assignment="criterion not met"
molecule="CN1C(=O)CC(C)(c2ccccc2)C1=O (stereo not given) [Methsuximide]" assay_system=HeLa class_assignment="criterion not met"
molecule=CCn1cc(C(=O)O)c(=O)c2cc(F)c(N3CCNCC3)cc21 assay_system=HeLa class_assignment="criterion not met"
molecule="Clc1ccc(COC(Cn2ccnc2)c2ccc(Cl)cc2Cl)c(Cl)c1 (stereo not given) [Miconazole nitrate]" assay_system=HeLa class_assignment="criterion met"
molecule=CCCCCCCC/C=C\C/C=C\C/C=C\CCCC(=O)O assay_system=HeLa class_assignment="criterion met"
molecule=CC(C)(C)c1cc(/C=C(\C#N)C(N)=S)cc(C(C)(C)C)c1O assay_system=HeLa class_assignment="criterion met"
